The measured values listed here are drawn from ChEMBL document CHEMBL1629526.

As shown below, each of these molecules has a reported EC50 value.
System: Human alphaherpesvirus 1
assay-text: Antiviral activity against thymidine kinase deficient acyclovir-resistant Herpes simplex virus 1 KOS infected in HEL cells assessed as inhibition of virus induced cytopathicity after 2 to 4 days by MTS assay
Assay type: functional, organism-based
condition-info: Human alphaherpesvirus 1, KOS
observed-property: EC50

• COc1ccc(C(=O)n2c(-c3ccc(S(=O)(=O)O)cc3)nc3ccccc32)cc1 = > 100 µg/mL
• O=c1[nH]c(=O)n([C@H]2C[C@H](O)[C@@H](CO)O2)cc1/C=C/Br = > 250 µg/mL
• NC(=O)c1ncn([C@@H]2O[C@H](CO)[C@@H](O)[C@H]2O)n1 = 2 µg/mL
• Nc1ccc(C(=O)n2c(-c3ccc(S(=O)(=O)O)cc3)nc3ccccc32)cc1 = > 100 µg/mL
• O=C(c1ccccc1O)n1c(-c2ccc(S(=O)(=O)O)cc2)nc2ccccc21 = > 100 µg/mL
